# ASSAY_EXPLANATION: total protein half-life in vivo (active degradation + dilution); higher = more stable protein
# MEASUREMENT_SETUP: wild type E. coli NCM3722; growth: N-lim chemostat; doubling time 6 h
Everything with total protein half-life in vivo lower than 4 h is no (0); everything else, including exactly 4 h, is yes (1).

These recorded examples may help you get a feel for the data.
Input line: Quick check, total protein half-life in vivo >= 4 h? MTHKATEILTGKVMQKSVLITGCSSGIGLESALELKRQGFHVLAGCRKPDDVERMNSMGFTGVLIDLDSPESVDRAADEVIALTDNCLYGIFNNAGFGMYGPLSTISRAQMEQQFSANFFGAHQLTMRLLPAMLPHGEGRIVMTSSVMGLISTPGRGAYAASKYALEAWSDALRMELRHSGIKVSLIEPGPIRTRFTDNVNQTQSDKPVENPGIAARFTLGPEAVVDKVRHAFISEKPKMRYPVTLVTWAVMVLKRLLPGRVMDKILQG [P0AFP4]
Output line: yes (1)

Input line: Could you tell me if the measured total protein half-life in vivo of MFQQQKDWETRENAFAAFTMGPLTDFWRQRDEAEFTGVDDIPVRFVRFRAQHHDRVVVICPGRIESYVKYAELAYDLFHLGFDVLIIDHRGQGRSGRLLADPHLGHVNRFNDYVDDLAAFWQQEVQPGPWRKRYILAHSMGGAISTLFLQRHPGVCDAIALTAPMFGIVIRMPSFMARQILNWAEAHPRFRDGYAIGTGRWRALPFAINVLTHSRQRYRRNLRFYADDPTIRVGGPTYHWVRESILAGEQVLAGAGDDATPTLLLQAEEERVVDNRMHDRFCELRTAAGHPVEGGRPLVIKGAYHEILFEKDAMRSVALHAIVDFFNRHNSPSGNRSTEV reaches 4 h or more?
Output line: yes (1)

Input line: Say whether MNYRIIPVTAFSQNCSLIWCEQTRLAALVDPGGDAEKIKQEVDDSGLTLMQILLTHGHLDHVGAAAELAQHYGVPVFGPEKEDEFWLQGLPAQSRMFGLEECQPLTPDRWLNEGDTISIGNVTLQVLHCPGHTPGHVVFFDDRAKLLISGDVIFKGGVGRSDFPRGDHNQLISSIKDKLLPLGDDVIFIPGHGPLSTLGYERLHNPFLQDEMPVW shows total protein half-life in vivo of 4 h or more.
Output line: no (0)

Input line: Given MTDNPNKKTFWDKVHLDPTMLLILLALLVYSALVIWSASGQDIGMMERKIGQIAMGLVIMVVMAQIPPRVYEGWAPYLYIICIILLVAVDAFGAISKGAQRWLDLGIVRFQPSEIAKIAVPLMVARFINRDVCPPSLKNTGIALVLIFMPTLLVAAQPDLGTSILVALSGLFVLFLSGLSWRLIGVAVVLVAAFIPILWFFLMHDYQRQRVMMLLDPESDPLGAGYHIIQSKIAIGSGGLRGKGWLHGTQSQLEFLPERHTDFIFAVLAEELGLVGILILLALYILLIMRGLWIAARAQTTFGRVMAGGLMLILFVYVFVNIGMVSGILPVVGVPLPLVSYGGSALIVLMAGFGIVMSIHTHRKMLSKSV [P0ABG7] , state whether its total protein half-life in vivo is at least 4 h.
Output line: yes (1)

Input line: Would you say MSIRIIPQDELGSSEKRTADMIPPLLFPRLKNLYNRRAERLRELAENNPLGDYLRFAALIAHAQEVVLYDHPLEMDLTARIKEASAQGKPPLDIHVLPRDKHWQKLLMALIAELKPEMSGPALAVIENLEKASTQELEDMASALFASDFSSVSSDKAPFIWAALSLYWAQMANLIPGKARAEYGEQRQYCPVCGSMPVSSMVQIGTTQGLRYLHCNLCETEWHVVRVKCSNCEQSGKLHYWSLDDEQAAIKAESCDDCDTYLKILYQEKDPKIEAVADDLASLVLDARMEQEGYARSSINPFLFPGEGE shows total protein half-life in vivo at minimum 4 h?
Output line: no (0)

Input line: In plain terms: is recorded total protein half-life in vivo at least 4 h for MYQVVASDLDGTLLSPDHTLSPYAKETLKLLTARGINFVFATGRHHVDVGQIRDNLEIKSYMITSNGARVHDLDGNLIFAHNLDRDIASDLFGVVNDNPDIITNVYRDDEWFMNRHRPEEMRFFKEAVFQYALYEPGLLEPEGVSKVFFTCDSHEQLLPLEQAINARWGDRVNVSFSTLTCLEVMAGGVSKGHALEAVAKKLGYSLKDCIAFGDGMNDAEMLSMAGKGCIMGSAHQRLKDLHPELEVIGTNADDAVPHYLRKLYLS ?
Output line: no (0)

Input line: Has MVSRRVQALLDQLRAQGIQDEQVLNALAAVPREKFVDEAFEQKAWDNIALPIGQGQTISQPYMVARMTELLELTPQSRVLEIGTGSGYQTAILAHLVQHVCSVERIKGLQWQARRRLKNLDLHNVSTRHGDGWQGWQARAPFDAIIVTAAPPEIPTALMTQLDEGGILVLPVGEEHQYLKRVRRRGGEFIIDTVEAVRFVPLVKGELA [P0A7A5] a recorded total protein half-life in vivo greater than or equal to 4 h?
Output line: no (0)

Input line: Has MQASQFSAQVLDWYDKYGRKTLPWQIDKTPYKVWLSEVMLQQTQVATVIPYFERFMARFPTVTDLANAPLDEVLHLWTGLGYYARARNLHKAAQQVATLHGGKFPETFEEVAALPGVGRSTAGAILSLSLGKHFPILDGNVKRVLARCYAVSGWPGKKEVENKLWSLSEQVTPAVGVERFNQAMMDLGAMICTRSKPKCSLCPLQNGCIAAANNSWALYPGKKPKQTLPERTGYFLLLQHEDEVLLAQRPPSGLWGGLYCFPQFADEESLRQWLAQRQIAADNLTQLTAFRHTFSHFHLDIVPMWLPVSSFTGCMDEGNALWYNLAQPPSVGLAAPVERLLQQLRTGAPV a recorded total protein half-life in vivo greater than or equal to 4 h?
Output line: yes (1)

Input line: Could you tell me if the measured total protein half-life in vivo of MADITLISGSTLGGAEYVAEHLAEKLEEAGFTTETLHGPLLEDLPASGIWLVISSTHGAGDIPDNLSPFYEALQEQKPDLSAVRFGAIGIGSREYDTFCGAIDKLEAELKNSGAKQTGETLKINILDHDIPEDPAEEWLGSWVNLLK reaches 4 h or more?
Output line: no (0)

--- query ---
Input line: Evaluate MAEVTQLKRYDARPINWGKWFLIGIGMLVSAFILLVPMIYIFVQAFSKGLMPVLQNLADPDMLHAIWLTVMIALIAVPVNLVFGILLAWLVTRFNFPGRQLLLTLLDIPFAVSPVVAGLVYLLFYGSNGPLGGWLDEHNLQIMFSWPGMVLVTIFVTCPFVVRELVPVMLSQGSQEDEAAILLGASGWQMFRRVTLPNIRWALLYGVVLTNARAIGEFGAVSVVSGSIRGETLSLPLQIELLEQDYNTVGSFTAAALLTLMAIITLFLKSMLQWRLENQEKRAQQEEHHEH [P0AEB0] : total protein half-life in vivo at minimum 4 h?
Output line: yes (1)
